B1: Segment polarity protein dishevelled homolog DVL-3, residues 2 to 81; numbered along this chain, Q92997 (parent)
chain: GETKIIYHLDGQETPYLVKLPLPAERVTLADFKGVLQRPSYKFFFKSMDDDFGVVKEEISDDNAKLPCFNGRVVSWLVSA

Variants of: B1
Assay: abundance fitness (aPCA) (normalised: wild type 0, dead -1); higher = more abundant; growth selection in yeast, the domain comes from the species named
Conditions: Homo sapiens
PARAMETER: abundance fitness
In your answer, state the number alone without any accompanying words.

Below, each entry is followed by its recorded abundance fitness result.
L20A
-1.06
L36S
-0.629
F43W
-0.58
N63V
-0.59
R26G
-0.441

Fill in: abundance fitness of "N63A" is ___
-0.184

Same question, "D62S" this time
-0.748

Same question, "P67M" this time
-0.603

Same question, "K56F" this time
-0.009

Same question, "D61K" this time
-0.984

Same question, "S40W" this time
-0.1
